Tested on: Pseudomonas aeruginosa
MEASUREMENT DESCRIPTION: Antimicrobial activity against Pseudomonas aeruginosa urine isolate 4706 containing PFGE clone A expressing beta-lactamase IMP-15 by broth microdilution method
Format: functional
CONDITION DESCRIPTION: isolate 4706, Urine
Form field: MIC (one value per entry).
Give the number; µg/mL is assumed, so skip it.

Example results:
C[C@@H](O)[C@H]1C(=O)N2C(C(=O)O)=C(SCCNC=N)C[C@H]12 [IMIPENEM ANHYDROUS] = 32
NCC[C@H](O)C(=O)N[C@@H]1C[C@H](N)[C@@H](O[C@H]2O[C@H](CN)[C@@H](O)[C@H](O)[C@H]2O)[C@H](O)[C@H]1O[C@H]1O[C@H](CO)[C@@H](O)[C@H](N)[C@H]1O = 64
C[C@@H](O)[C@H]1C(=O)N2C(C(=O)O)=C(S[C@@H]3CN[C@H](C(=O)N(C)C)C3)[C@H](C)[C@H]12 = 128

Please examine the following record next.
Determine reported MIC for `CCN1CCN(C(=O)N[C@@H](C(=O)N[C@@H]2C(=O)N3[C@@H]2SC(C)(C)[C@@H]3C(=O)O)c2ccccc2)C(=O)C1=O` ; test system: Pseudomonas aeruginosa. 64

---

Form field: MIC (one value per entry).
Tested on: Pseudomonas aeruginosa
MEASUREMENT DESCRIPTION: Antimicrobial activity against Pseudomonas aeruginosa secretion isolate 4688 containing PFGE clone A1 expressing beta-lactamase IMP-15 by broth microdilution method
Format: functional
Give the number; µg/mL is assumed, so skip it.

C[C@@H](O)[C@H]1C(=O)N2C(C(=O)O)=C(S[C@@H]3CN[C@H](C(=O)N(C)C)C3)[C@H](C)[C@H]12 [MEROPENEM] = 128

Please examine the following record next.
Determine reported MIC for CCN1CCN(C(=O)N[C@@H](C(=O)N[C@@H]2C(=O)N3[C@@H]2SC(C)(C)[C@@H]3C(=O)O)c2ccccc2)C(=O)C1=O [PIPERACILLIN] ; test system: Pseudomonas aeruginosa. 64

---

Tested on: Pseudomonas aeruginosa
MEASUREMENT DESCRIPTION: Antimicrobial activity against Pseudomonas aeruginosa catheter isolate 4696 containing PFGE clone A expressing beta-lactamase IMP-15 by broth microdilution method
Format: functional
Form field: MIC (one value per entry).
Give the number; µg/mL is assumed, so skip it.

C[C@@H](O)[C@H]1C(=O)N2C(C(=O)O)=C(S[C@@H]3CN[C@H](C(=O)N(C)C)C3)[C@H](C)[C@H]12 = 128

Determine reported MIC for C[C@@H](O)[C@H]1C(=O)N2C(C(=O)O)=C(SCCNC=N)C[C@H]12 [IMIPENEM ANHYDROUS] ; test system: Pseudomonas aeruginosa. 128

Determine reported MIC for `CCN1CCN(C(=O)N[C@@H](C(=O)N[C@@H]2C(=O)N3[C@@H]2SC(C)(C)[C@@H]3C(=O)O)c2ccccc2)C(=O)C1=O` ; test system: Pseudomonas aeruginosa. 64

---

Tested on: Pseudomonas aeruginosa
MEASUREMENT DESCRIPTION: Antimicrobial activity against Pseudomonas aeruginosa secretion isolate 4688 containing PFGE clone A1 expressing beta-lactamase IMP-15 by broth microdilution method
Type: functional
Form field: MIC (one value per entry).

Example results:
NCC[C@H](O)C(=O)N[C@@H]1C[C@H](N)[C@@H](O[C@H]2O[C@H](CN)[C@@H](O)[C@H](O)[C@H]2O)[C@H](O)[C@H]1O[C@H]1O[C@H](CO)[C@@H](O)[C@H](N)[C@H]1O = > 128 µg/mL
C[C@@H](O)[C@H]1C(=O)N2C(C(=O)O)=C(SCCNC=N)C[C@H]12 [IMIPENEM ANHYDROUS] = > 128 µg/mL

Please give the documented MIC of `CC(C)(O/N=C(\C(=O)N[C@@H]1C(=O)N2C(C(=O)[O-])=C(C[n+]3ccccc3)CS[C@H]12)c1csc(N)n1)C(=O)O` > 128 µg/mL
